Measured LC retention time accompanies every entry in the list below.
experiment: RP, Thermo Scientific Acclaim RSLC 120 C18, 100 × 2.1 mm, 2.2 µm, 30 °C, 0.2 mL/min, estimated dead time 1.1 min; A: 90% water + 10% methanol + 0.01% formic acid + 5 mM ammonium formate, pH 3.61; B: methanol + 0.01% formic acid + 5 mM ammonium formate, pH 3.61; gradient (min/%B) 0/1 1/1 2/39 13/99.9 15/99.9 15.1/1 20.1/1; conditions: stereoisomer not certain
readoutLabel: LC retention time (min)

- compound: "CCCCCn1cc(C(=O)Cc2cccc(OC)c2)c2ccccc21"
  assayResult: 11.6
- compound: "O=C(c1cccc2ccccc12)c1nn(CCCCCF)c2ccccc12"
  assayResult: 11.9
- compound: "CP(=O)(O)CCC(N)C(=O)O (stereo not drawn) [Glufosinate]"
  assayResult: 1.44
- compound: "CC1(C)OC2CC3C4CCC5=CC(=O)C=CC5(C)C4(F)C(O)CC3(C)C2(C(=O)CO)O1 (stereo not drawn) [Triamcinolone acetonide]"
  assayResult: 8.69
- compound: "CC(C)Nc1nc(NC(C)C)[nH]c(=O)n1 [Propazine-2-hydroxy (Prometon-Hydroxy)]"
  assayResult: 5.96
- compound: "CCOc1cc(NC(C)=O)ccc1C(=O)OC [Ethopabate]"
  assayResult: 6.63
- compound: "CCCCCCCCCCCCCCCC[N+](C)(C)Cc1ccccc1"
  assayResult: 13.1
- compound: "NC12CC3CC(CC(C3)C1)C2"
  assayResult: 4.86
- compound: "CN1CCC(=C2c3ccccc3CCc3cccnc32)CC1"
  assayResult: 5.99
- compound: "CC(CN(C)C)C(C)(O)Cc1ccc(Cl)cc1 (stereo not drawn)"
  assayResult: 6.31
- compound: "CC(C)CCOc1ccc(NC(=S)Nc2ccc(OCCC(C)C)cc2)cc1 [Tiocarlide]"
  assayResult: 13
- compound: "C[N+](C)(C)CCCl"
  assayResult: 1.67
- compound: "COC(C)C(O)(C(=O)OCC1=CCN2CCC(O)C12)C(C)C (stereo not drawn)"
  assayResult: 4.27
- compound: "Cc1nnc(SCC2=C(C(=O)O)N3C(=O)C(NC(=O)Cn4cnnn4)C3SC2)s1 (stereo not drawn)"
  assayResult: 4.16
- compound: "CC(C)NCC(O)COc1cccc2ccccc12 (stereo not drawn)"
  assayResult: 6.59
- compound: "NC(=O)C1(N2CCCCC2)CCN(CCCC(=O)c2ccc(F)cc2)CC1"
  assayResult: 6.11
- compound: "CN(C)CCN(Cc1cccs1)c1ccccc1"
  assayResult: 6.32
- compound: "c1ccc2n[nH]nc2c1"
  assayResult: 4.76
- compound: "Cc1ccc(NC(=O)c2ccc(CN3CCN(C)CC3)cc2)cc1Nc1nccc(-c2cccnc2)n1"
  assayResult: 6.6
- compound: "COc1cc(CCNCc2ccccc2OC)c(OC)cc1Cl"
  assayResult: 7.34
- compound: "COCCOc1ccccc1S(=O)(=O)NC(=O)Nc1nc(OC)nc(OC)n1"
  assayResult: 6.36
- compound: "CCC(C)(NC(=O)c1cc(Cl)c(C)c(Cl)c1)C(=O)CCl (stereo not drawn) [Zoxamide]"
  assayResult: 11.1
- compound: "COc1ccc(CC(C)N)cc1 (stereo not drawn)"
  assayResult: 4.34
- compound: "O=C1CN=C(c2ccccc2Cl)c2cc([N+](=O)[O-])ccc2N1"
  assayResult: 7.61
- compound: "CN(C)CCCN1c2ccccc2Sc2ccc(C(F)(F)F)cc21"
  assayResult: 9.27
- compound: "CC(=O)OCC(=O)C1(O)CCC2C3CCC4=CC(=O)CCC4(C)C3C(O)CC21C (stereo not drawn) [Hydrocortisone 21-acetate]"
  assayResult: 8.8
- compound: "CC12C=CC(=O)C=C1CCC1C2C(O)CC2(C)C1CCC2(O)C(=O)CO (stereo not drawn)"
  assayResult: 7.84
- compound: "C=CC=CCC1=C(C)C(OC(=O)C2C(C=C(C)C(=O)OC)C2(C)C)CC1=O (stereo not drawn)"
  assayResult: 11.7
- compound: "CCNC(C)C(O)c1ccc(O)c(O)c1 (stereo not drawn)"
  assayResult: 1.99
- compound: "CCCCOCCOCCSC#N"
  assayResult: 8.12
- compound: "Cn1cnc2c1c(=O)n(CCCC(=O)O)c(=O)n2C"
  assayResult: 4.48
- compound: "CCS(=O)(=O)CCn1c([N+](=O)[O-])cnc1C"
  assayResult: 3.86
- compound: "Nc1nc(N)nc(NC2CC2)n1"
  assayResult: 2.78
- compound: "CC(C)NCC(O)COc1cccc2[nH]ccc12 (stereo not drawn)"
  assayResult: 3.89
- compound: "CC12CCC(=O)C=C1C1CC1C1C2CCC2(C)C1C1CC1C21CCC(=O)O1 (stereo not drawn)"
  assayResult: 9.56
- compound: "CC(C)Nc1nc(N)nc(Cl)n1"
  assayResult: 5.73
- compound: "CN(C)C(=O)Nc1ccccc1"
  assayResult: 5.12
- compound: "CCCN(CCC)CCc1cccc2c1CC(=O)N2"
  assayResult: 3.98
